B1: LINE1-mini (parent)
chain: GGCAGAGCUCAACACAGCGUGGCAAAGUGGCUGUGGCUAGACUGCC

Variants of: B1
Assay: self-cleavage, relative activity (ratio to wild type); higher = more cleavage; in vitro, sequencing; the parent is a self-cleaving ribozyme
Each record gets a class by self-cleavage: 0: < 0.09; 1: ≥ 0.09 and < 0.2; 2: ≥ 0.2

**Q:** GET /class?item= A16G G36A
**A:** 2

**Q:** GET /class?item= A16U A39U
**A:** 0

**Q:** GET /class?item= C23U U34C
**A:** 2

**Q:** GET /class?item= G36U U43G
**A:** 1

**Q:** GET /class?item= A26U U28C
**A:** 2

**Q:** GET /class?item= G5A A25G
**A:** 1

**Q:** GET /class?item= A11C C13G
**A:** 0

**Q:** GET /class?item= A41U C45A
**A:** 1

**Q:** GET /class?item= A12U U34A
**A:** 0

**Q:** GET /class?item= U9A U28G
**A:** 1
